Documented self-cleavage across a set of variants
B1: Hairpin Ribozyme (parent)
chain: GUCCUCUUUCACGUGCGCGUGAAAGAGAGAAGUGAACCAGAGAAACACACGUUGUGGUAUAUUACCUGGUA

variants of: B1; test: self-cleavage, relative activity (ratio to wild type); higher = more cleavage; co-transcriptional

G40C U62G | 0.0847
G17U C66A | 0.233
U2G G29A | 0.168
G15C A28G | 1.29
C3A G51A | 0.819

Query: So what's the measured self-cleavage for this one? A44U A64C
Reply: 0.216

Query: So what's the measured self-cleavage for this one? G57C A59G
Reply: 0.244

Query: So what's the measured self-cleavage for this one? C10G A26G
Reply: 0.776

Query: So what's the measured self-cleavage for this one? A11U A22U
Reply: 0.501

Query: So what's the measured self-cleavage for this one? G27U U60C
Reply: 0.383

Query: So what's the measured self-cleavage for this one? U20C U62G
Reply: 0.116
